Data provenance is the supplement of paper PMC10567573.

Exercise: for every item that follows, state its recorded protein stability index.
B1: SOAT1 (parent)
chain: GVLILFLTFFAFLHCWLNAFAEML

variants of: B1; test: protein stability index of a GFP-peptide fusion (GPS, HEK-293T) (PSI 1-6); higher = more stable; conditions: c terminus: a fixed tail appended;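 also: lentivirally expressed fusions sorted by FACS into six bins by GFP to DsRed ratio, PSI derived from sequencing read proportions per bin multiplied by bin number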
Simply state the number, no unit and no words.

Data request: Supply reported protein stability index belonging to this variant: `F10M`
Data returned: 1.67

Data request: Please indicate protein stability index recorded for `I4A`
Data returned: 2.03

Data request: Provide only the value of recorded protein stability index for `V2K`
Data returned: 2.31

Data request: Recall and state the measured protein stability index for `H14D` .
Data returned: 3.15

Data request: Provide protein stability index value for the following variant: `A19H`
Data returned: 3.33

Data request: Identify the reported protein stability index for the following entry. `L7G`
Data returned: 2.95

Data request: Entry `L3Y` needs its protein stability index filled in; supply it.
Data returned: 2.94

Data request: Using known records, supply protein stability index for `L3K`
Data returned: 1.94

Data request: Return value of protein stability index for input `M23E` , no commentary.
Data returned: 1.75

Data request: Identify protein stability index associated with the variant `W16H`
Data returned: 3.94

Data request: Output protein stability index of `H14K`
Data returned: 2.17

Data request: Identify protein stability index associated with the variant `M23G`
Data returned: 2.18

Data request: Please look at this variant and report its protein stability index: `L24K`
Data returned: 3.06

Data request: Kindly indicate its recorded protein stability index. Item: `H14Y`
Data returned: 2.09

Data request: Please look at this variant and report its protein stability index: `F20A`
Data returned: 3.08

Data request: For the variant `L24C` , give its measured protein stability index value.
Data returned: 3.67

Data request: Could you please provide reported protein stability index for `I4V` ? Thanks!
Data returned: 2.92

Data request: Please supply the value of reported protein stability index for the item `E22G`
Data returned: 2.16

Data request: Annotate the variant `M23I` with its measured protein stability index.
Data returned: 2.85

Data request: Specify reported protein stability index for the variant shown: `F6I`
Data returned: 2.63

Data request: Item `F10A` : provide protein stability index
Data returned: 3.62

Data request: Identify protein stability index associated with the variant `F9G`
Data returned: 4.01

Data request: Report measured protein stability index; entry is `F12G`
Data returned: 2.81

Data request: Input `A19V` , output reported protein stability index.
Data returned: 2.77

Data request: Return protein stability index (reported value) for this variant: `C15I`
Data returned: 2.55

Data request: Respond only with protein stability index recorded for `L17G`
Data returned: 2.06

Data request: State its protein stability index: `E22M`
Data returned: 3.66

Data request: // Input: `F9W` . Output its protein stability index only.
Data returned: 3.04

Data request: Let me know recorded protein stability index for `A21Y` , thanks.
Data returned: 1.84

Data request: Identify measured protein stability index corresponding to `W16I`
Data returned: 2.96

Data request: Quick one: give measured protein stability index for `F6A`
Data returned: 3.95

Data request: Query protein stability index for `W16G`
Data returned: 3.64

Data request: Fill in reported protein stability index for this entry: `A19K`
Data returned: 2.96
